Sourced from PubChem BioAssay AID686979

# EXPERIMENTAL DETAILS: qHTS for Inhibitors of human tyrosyl-DNA phosphodiesterase 1 (TDP1): qHTS in cells in presence of CPT; also: nearly all actives have a fitted effect of over 55% in size
# MEASUREMENT CONDITIONS: chicken DT40 Tdp1-/-;hTDP1 cells + 20 nM CPT, ATP luminescence, 48 h; series mostly up to 46.2 µM
About 50,000 (12%) of roughly 420,000 compounds were called active. About 26% were inconclusive and are not listed. Calls follow the shape of the dose curve; as a rule, active = well fitted inhibition curve with a large enough effect; inconclusive = small, poorly fitted or top-dose-only effect; inactive = flat fitted curve, though single readings scatter. The list comes from a sample in which actives are over-represented; it also holds close analogues and randomly drawn compounds.
Please reply with one of these outcomes: 1 (active), 0 (inactive)

Status in this test for `COCCNC(=O)CN(Cc1ccco1)C(=O)CCC(=O)Nc1nccs1` ?
0

Thanks! And CCC(C)CN1CCC(CO)(Cc2ccccc2Cl)CC1 (stereo unspecified) ?
0

Thanks! And `CC(C)OCCCn1c(SCC(=O)c2ccccc2)nc2c(sc3ccccc32)c1=O` ?
0

Thanks! And `COC(=O)N(C)C[C@@H]1OCc2cnnn2CCCC(=O)N([C@@H](C)CO)C[C@@H]1C` ?
0

Thanks! And `Cn1c(SCC(=O)Nc2nccs2)nnc1-c1cccnc1` ?
0

Thanks! And `O=C(c1cc(C(=O)N2CCN(c3ccc(F)cc3)CC2)cc([N+](=O)[O-])c1)N1CCN(c2ccc(F)cc2)CC1` ?
1

Thanks! And `O=C1CCNCCN1[C@H](CO)Cc1ccccc1` ?
0

Thanks! And `c1ccc2c(CCN3CCNC[C@H]3Cc3cccc4ccccc34)cccc2c1` ?
1

Thanks! And O=C(Nc1ccccc1Cl)/C(Cl)=C(\Cl)S(=O)c1ccccc1 (stereo unspecified) ?
1

Thanks! And `O=C(c1cccc([N+](=O)[O-])c1)N1CCN(C(=O)c2ccco2)CC1` ?
0

Thanks! And Cc1cccc(-c2nnc(SC(C)C(=O)Nc3ccccc3)n2C)c1 (stereo unspecified) ?
0

Thanks! And Cc1ccc(S(=O)(=O)N(C)C)cc1NC(=O)C(C)OC(=O)c1ccc2ccccc2n1 (stereo unspecified) ?
0

Thanks! And `COc1ccc(S(=O)(=O)N(CC(=O)NCc2ccco2)c2ccc(F)cc2)cc1` ?
0

Thanks! And `O=C(c1cc2cc(F)ccc2[nH]1)N1CCN(c2ccc(F)cc2)CC1` ?
0

Thanks! And `COc1ccc(CNC(=O)CN(c2ccc(OC)c(Cl)c2)S(=O)(=O)c2ccc(C)cc2)cc1` ?
1

Thanks! And `O=C(c1cccc(C(=O)N2CCN(c3ccc(F)cc3)CC2)c1)N1CCN(c2ccc(F)cc2)CC1` ?
1

Thanks! And `CN(Cc1ccccc1)S(=O)(=O)c1nnc(NC(=O)c2ccccc2F)s1` ?
0

Thanks! And `CC(=O)NCCNC(=O)c1cc(-c2cccc3ccccc23)nc2ccccc12` ?
0

Thanks! And CC(c1ccco1)N(C(=O)c1ccc(S(=O)(=O)N2CCCCC2)cc1)c1ccccn1 (stereo unspecified) ?
0

Thanks! And `Cc1[nH]c2ccccc2c1C(=O)C(=O)NCc1nnnn1-c1cccc(F)c1` ?
0

Thanks! And Cc1ccc(NC2CCCN(C(=O)CCC3(C)CC3)C2)cc1C (stereo unspecified) ?
0

###

# EXPERIMENTAL DETAILS: qHTS for Inhibitors of human tyrosyl-DNA phosphodiesterase 1 (TDP1): qHTS in cells in presence of CPT; also: nearly all actives have a fitted effect of over 55% in size
# MEASUREMENT CONDITIONS: chicken DT40 Tdp1-/-;hTDP1 cells + 20 nM CPT, ATP luminescence, 48 h; series mostly up to 46.2 µM
Screen size: about 420,000 compounds; about 50,000 (12%) were called active. Another 26% or so got no clear call; they are omitted. Calls follow the shape of the dose curve; as a rule, active = well fitted inhibition curve with a large enough effect; inconclusive = small, poorly fitted or top-dose-only effect; inactive = flat fitted curve, though single readings scatter. The sample holds actives, similar compounds and a random draw of the others, so the mix is not that of the screen.
Please reply with one of these outcomes: active, inactive

Status in this test for `O=C(Nc1ccc(N2CCOCC2)c(Cl)c1)c1ccc(S(=O)(=O)N2CCOCC2)cc1` ?
inactive

Thanks! And `COc1cc(NC(=O)C2CCN(c3cnccn3)CC2)cc(OC)c1` ?
inactive

Thanks! And `CCOC(=O)CN1C(=O)C(=O)c2cc(C)ccc21` ?
active

Thanks! And `O=S(=O)(c1cccc(-c2nnc3n2CCCCC3)c1)N1CCOCC1` ?
inactive

Thanks! And `CC(=O)Nc1cccc(C(=O)Nc2nc(C)cs2)c1` ?
inactive

Thanks! And COc1ccc(CNC(=O)CC2Oc3ccc(C)cc3NC2=O)cc1 (stereo not drawn) ?
inactive

Thanks! And `CCN(C(=O)COc1ccc(C(=O)c2ccccc2)cc1)c1ccccc1` ?
active

Thanks! And `N#Cc1cccc(CN2CCC(=O)N([C@H](CO)c3ccccc3)CC2)c1` ?
inactive

Thanks! And CCOc1ccc(S(=O)(=O)N2CCCCC2)cc1NC(=O)CN1CCCC1c1cccs1 (stereo not drawn) ?
active

Thanks! And `Cc1ccc2occ(/C=N/NC(=O)c3ccccc3C)c(=O)c2c1` ?
active

Thanks! And `COc1ccc(S(=O)(=O)N2CCCCCC2)cc1NC(=O)Cc1ccc(OC)c(OC)c1` ?
inactive

Thanks! And `O=C(Nc1ccc([N+](=O)[O-])cc1)C1(c2ccccc2)CCOCC1` ?
inactive

Thanks! And `CN1CCC(N(C)S(=O)(=O)c2ccc(NC(=O)c3cccc(C#N)c3)cc2)CC1` ?
inactive

Thanks! And `CC(C)(C)OC(=O)NCCCCCC(=O)N/N=C/c1coc2ccccc2c1=O` ?
inactive

Thanks! And `CC(=O)c1ccc(S(=O)(=O)NCc2nnnn2-c2ccccc2)cc1` ?
inactive

Thanks! And `c1ccc(-c2c[nH]c(-c3ccccc3)c2)cc1` ?
inactive

Thanks! And CCC(C)[C@@H](C(=O)N1CCNCC1)n1cc(CCCCN)nn1 (stereo partly drawn) ?
inactive

Thanks! And `CN(Cc1ccccc1)C(=O)COc1ccccc1` ?
inactive

Thanks! And `CCCCOC(=O)Cn1c(=O)n(CC(=O)OCCCC)c2cc(C)ccc21` ?
inactive

Thanks! And `CCOC(=O)C1CCN(C(=O)CN2C(=O)c3cccnc3Oc3ccc(C)cc32)CC1` ?
inactive

Thanks! And `CC(C)OC(=O)CN1C(=O)C(=O)c2ccccc21` ?
active

Thanks! And `COc1cccc(NC(=O)CN(C)C(=O)CSCc2nc3scc(-c4cccs4)c3c(=O)[nH]2)c1` ?
inactive

Thanks! And CC(OC(=O)CN1C(=O)c2ccccc2C1=O)C(=O)c1ccccc1 (stereo not drawn) ?
inactive
